This collection of values is drawn from paper PMC7592892.

target: CYP2E1 (Homo sapiens); construct: marker reactions with specific substrates in human liver microsomes (HLMs); from tissue; host or cells: pooled human liver microsomes; experiment: CYP2E1 inhibition in pooled human liver microsomes (chlorzoxazone 6-hydroxylation); format: in vitro ADME; conditions: human, pooled human liver microsomes, pH 7.4, probe chlorzoxazone (6-hydroxylation); HLMs, 0-100 μM anemarsaponin BII
Sequence (P05181 whole entry): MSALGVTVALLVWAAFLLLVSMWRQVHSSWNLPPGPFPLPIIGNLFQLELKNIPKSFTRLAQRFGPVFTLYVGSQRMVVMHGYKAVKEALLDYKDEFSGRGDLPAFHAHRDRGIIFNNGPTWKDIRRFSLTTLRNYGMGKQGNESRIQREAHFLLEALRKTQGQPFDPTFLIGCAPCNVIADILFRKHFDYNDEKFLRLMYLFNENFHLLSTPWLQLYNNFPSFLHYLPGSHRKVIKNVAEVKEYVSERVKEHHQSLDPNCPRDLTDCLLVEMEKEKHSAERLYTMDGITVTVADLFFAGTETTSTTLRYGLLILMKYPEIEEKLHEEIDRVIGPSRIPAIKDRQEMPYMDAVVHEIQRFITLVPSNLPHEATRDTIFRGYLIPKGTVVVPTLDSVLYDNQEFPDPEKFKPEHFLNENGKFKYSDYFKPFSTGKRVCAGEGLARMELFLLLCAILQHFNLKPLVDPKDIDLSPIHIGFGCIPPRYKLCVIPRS
pIC50: −log10 of the molar value.

molecule	pIC50
CC(CCC1(O)OC2CC3C4CCC5CC(OC6OC(CO)C(O)C(O)C6OC6OC(CO)C(O)C(O)C6O)CCC5(C)C4CCC3(C)C2C1C)COC1OC(CO)C(O)C(O)C1O (stereo not shown)	4.72
